B1: TPR t1 (parent)
chain: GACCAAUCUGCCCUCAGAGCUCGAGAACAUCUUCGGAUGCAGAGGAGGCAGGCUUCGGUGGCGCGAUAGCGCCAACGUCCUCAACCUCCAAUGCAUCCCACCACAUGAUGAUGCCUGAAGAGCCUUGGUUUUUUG

Variants of: B1
run description: polymerase ribozyme fitness, log enrichment relative to wild type (log ratio); higher = more active; in vitro selection for triplet polymerase activity
Each entry below carries its reported polymerase ribozyme fitness (log ratio).
readout: polymerase ribozyme fitness (log ratio)

record sequence	value
GACCAAUCUGCCCUCAGAGCUCGAGAACAUCUUCGGAUGCAGAGGAGGCAGGCUUCGGUGGCGCGAUAGCGCUAACGUCCUCAACCUCCAAUGCAUCCCACCACAUGAUGAUGCCUGAAGAGCUUUGGUUUUUUG	1.94
GACCAAUCUGCCCUCAGAGCUCGAGAACAUCUUCGGAUGCAGAGGAGGCAGGCUUCGGUGGUGCUAUAGCGCCAACGUCCUCAACCUCCAAUGCAUCCCACCACAUGAUGAUGCCUGAAGAGCCUUGGUUUUUUG	-3.73
GACCAAUCUGUCCUCAGAGCUCGAGAACAUCUUCGGAUGCAGAGGAGGGAGGCUUCGGUGGCGCGAUAGCGCCAACGUCCUCAACCUCCAAAGCAUCCCACCACAUGAUGAUGCCUGAAGAGGCUUGGUUUUUUG	-3.91
GACCAAUCUGCCCUCAGAGCUCGAGUACAUCUUCGGAUGCAGAGGAGGCAGGCUUCGGUGGCGCGAUAGCGCCAACGUCCUCAACCUCCAAUGCAUCCCACCACAUGAUGAUGCUUGAAGAGCCUUGGUUUUUUG	-4.53
GACCAAUCUGCCCUCAGAGCUCGAGAACAUCUUCGGAUGCAGAGCAGGCAGGCUUCGGUGGCGCGAUAGCGCCAACGUCCUCAACCUCCAAAGCAUCCCACCACAUGAUGAUGCCUGAAGAGCCUUGGUUUUUUG	-3.97
GACCAAUCUGCCCUCAGUGCUCGAGAACAUCUUCGGAUGCAGAGGAGGCAGGCUUCGGUGGCGCGAUAGCGCCAACGUCCUCAACCUCCAAUGGAUCCCACCACAUGAUGAUGCCUGAAGCGCCUGGGUUUUUUG	-5.02
GACCAAUCUGCCCUCUGAGCUCGAGAACAUCUUCGGAUGCAGAGGAGGCAGGCUUCGGUGGCGCGAUAGCGCGAACGUCCUCAACCUCCAAUGCAUCCCACCACAUGAUGAUGCCUGAAGAGCCUUGGUUUUUUG	-2.59
GACCAAUCUGCCCUCAGAGCUCGAGAACAUCUUCGGAUGCAGAGGAGGCAGGUUUCGGUGGCGCGAUAGCGCCAACGUCCUCAACCUCCAAUGCAUCCCACCACAUGAGGAUGCCUGAAGAGCCUUGGUUUUUUG	-4.32
GACCAAUCUGCCCUCAGAGCUCGAGAACAUCUUCGGAUGCGGAGGAGGCAGGCUUCGGUGCCGCGAUAGCGCCAACGUCCUCAACCUCCAAUGCCUCCCAUCACAAGAUGAUGCCUGAAGAGCCUUGGUUUUUUG	-3.41
GACCAAUCUGCCAUCAGAGCUCGAGAACAUCUUCGGAUGCAGAGGAGGCAGGCUUCGGUGGCGCGAUAGCGCCAACGUCCUCAACCUCCAAUGCAUCCCACCACAUGAUGCUGCCUGAAGAGCCUUGGUUUUUUG	-1.39
GACCAAUCUGCCCUCAGAGCUCGAGAACAUCUUCGGAUGCAGAGGAGGCAGGCUUCGGUGGCGCGAUAGCGCCAACGUCCUCAACCUCCAAUGCAUCCCACCACAUGAUGAUGCCUUAAGAGCCUUGGUCUUUUG	-2.04
GACCAAUCUGCCCUCAGAGCUCGAGAACAUCUUCGGAUGCAGAGGAGGCAGGCUUCGGUGGCGCGAUAGCGCCAACGUCCUCAACCUCCAAUGCAUCCCACCACAUGAUGAUGCCUGAAGCGCCUUGGAUUUUUG	-1.04
GACAAAUCUGCACUCAGAGCUCGAGAACAUCUUCGGAUGCAGAGGAGGCAGGCUUCGGUGGCGCGAUAGCGCCAACGUCCUCAACGUCCAAUGCAUCCCACCACAUGAUGAUGCCUGAAUAGCCUUGCUUUUUUG	-1.61
GACCAAUCUGCCCUCAGAGCUCGAGAACAUCUUCGGAUGCAGAGGAGGCAGGCUUCGGUGGCGCGAUAGCGCCAACGUCCUCAACCUCCAAUGCAUCUCACCACAUGAUGAUGCCUGAAGAGUCUUGGUUUUUUG	-1.28
GACCAAUCUGCCCUCAGAGCUCGAGAACUUCUUCGGAUGCAGUGGAGGCAGGCUUCGGUGGCGCGAUAGCGCCAACGCCCUCAACCUCCAAUGCAUCCCACCACAUGAUGAAGCCUGAAGAGCCUUGGUUUUUUG	-2.84
GACCAAUCUGCCCUCAGAGCUCGAGAACAUCUUCGGAUGCAGAGGAGGCAGGCUACGGUGGCGCGAUAGCGCCAACGUCCUCAACCUUCAAUGCAUCCCACCACAUGAUGAUGCCUGAAGAGCCUUGGUUUUUUG	0.678
GACCAAUCUGCCCUCAGCGCUCGAGAACAUCUUCGGAUGCAGAGGAGGCAGGCUUCGGUGGCGCGAUAGCGCCAACGUCCUCAACCUCCAAUGCAUCCCACCACAUGAUGAUUCCUGAAGAGCCUUGGUUUUUUG	-4.82
GACCAAUCUGCCCUCAGAGCUCGAGAACAUCUUCGGAUGAAGAGGAGGCAGGCUUCGGUGGCGCGAUAGCGCCAACGCCCUCAACCUCCAAAGCAUCCCACCACAUGAUGAUGCUUGAAGAGCCUUGGUUUUUUG	-4.02
GACCAAUCUGCCAUCAGAGCUCGAGAACAUCUUCGGAUGCAGAGGAGGCAGGCUUCGGUGGCGCGAUAGCGCCAACGUCCUCAACAUCCAAUGCAUCCCACCACAUGAUGAUGCCUGAAGAGCCUUGGUUUUUUG	-3.09
GAGCAAUCUGCCCUCAGAGCUCGAGAACAUCUUCGGAUGCAGAGGAGGCAGGCUUCGGUGGCGCGAUAGCGCCAACGUCCUCAACCUCCAAUGCAUCCCACCACAUGAGGAUGCCUGAAGAGCCUUGGUUUUUUG	-5.75
GACCAAUCUGCCCUCAGAGCUCGAGCACAUCUUCGGAUGCAGAGGAGGCAGGCUUCGGUGGCGCGAUAGCGCCAACGUCCUCAACCUCCAAUGCAUCCCACCACAAGAUGAUGCCUGAAGAACCUUGGUUUUUUG	-2.97
GACCAAUCUGCCCUCAGAGCUCGAGAACAUCUUCGGAUGCAGAGGAGGCAGGCUUCGGUGGCGCGAUAGCGCCAACGUCCUAAACCUCCAAUCCAUCCCACCACAUGAUGCUGCCUGAAGAGCCUUGGUUUUUUG	-0.977
GACCAAUCUGCCCUCAGAGCUCGAGAACAUCUUCGGAUGCAGAGGAGGCAGGCUUCGGUGGCGCGAUAACGCCAACGUCCUCAAUCUCCAAUGCAUCCCACCACAUGAUGAUGCCUGAAGAGCCUUGGUUUUUUG	-3.69
GACCAAUCUGCCAUCAGAGCUCGAGAACAUCUUCGGAUGCAGAGGAGGCAGGCUUCGGUGGCGCGAUAGCGUCAACGUCCUCAACCUCCAAUGCAUCCCACCACAUGAUGAUGCCUGAAGAGCCUUGGUUUUUUG	-1.96
